test: Cmax in Sprague-Dawley rat at 2 mg/kg, po; type: ADME, organism-based; parameters: dose 2 mg/kg, route oral; details: in vivo
property: Cmax

Query Cmax for CCCn1c(=O)c2[nH]c(-c3cnn(Cc4ccc(C(F)(F)F)nc4)c3)nc2n(CC)c1=O
671 ng/mL

Query Cmax for CCCn1c(=O)c2[nH]c(-c3cnn(Cc4noc(-c5ccc(C(F)(F)F)cc5)n4)c3)nc2n(CC)c1=O
34.6 ng/mL

Query Cmax for CCCn1c(=O)c2[nH]c(-c3cnn(Cc4cccc(C(F)(F)F)c4)c3)nc2n(CC)c1=O
1110 ng/mL

* * *

test: Plasma concentration in Sprague-Dawley rat at 2 mg/kg, po after 4 hrs; format: ADME, organism-based; design: dose 2 mg/kg, route oral
property: concentration at 4 h (ng/mL)
Numbers only; they are read as ng/mL.

Query concentration at 4 h for CCCn1c(=O)c2[nH]c(-c3cnn(Cc4noc(-c5ccc(C(F)(F)F)cc5)n4)c3)nc2n(CC)c1=O
7.75

* * *

species: Homo sapiens; assay: Selectivity for human recombinant adenosine A2B receptor over human recombinant adenosine A3 receptor
Kindly state Ratio Ki for each of the entries shown.
The reply should be a number, written without any unit.

Query Ratio Ki for CCn1c(=O)c2nc(-c3cnn(Cc4cccc(C(F)(F)F)c4)c3)[nH]c2n(CC)c1=O
34

Query Ratio Ki for CCn1c(=O)c2[nH]c(-c3cnn(Cc4cccc(C(F)(F)F)c4)c3)nc2n(C)c1=O
43

Query Ratio Ki for CCCn1c(=O)c2[nH]c(-c3cnn(Cc4cccc(F)c4)c3)nc2n(CCC)c1=O
4

Query Ratio Ki for CCCn1c(=O)c2[nH]c(-c3cnn(Cc4cccc(F)c4)c3)nc2n(CC)c1=O
27

Query Ratio Ki for CC(C)Cn1c(=O)c2[nH]c(-c3cnn(Cc4ccccc4)c3)nc2n(C)c1=O
9

* * *

species on record: Homo sapiens; test: Selectivity for human recombinant adenosine A2B receptor over human recombinant adenosine A2A receptor
Ratio Ki less than 40 is condition met; Ratio Ki greater than or equal to 40 is condition not met.

Does the reported Ratio Ki of CCCn1c(=O)c2[nH]c(-c3cnn(Cc4cc(-c5ccc(C(F)(F)F)cc5)on4)c3)nc2n(CC)c1=O stay below 40?
condition not met

Does the reported Ratio Ki of CCn1c(=O)c2[nH]c(-c3cnn(Cc4cccc(F)c4)c3)nc2n(C)c1=O stay below 40?
condition met

Does the reported Ratio Ki of CCCn1c(=O)c2[nH]c(-c3cnn(Cc4ccc[n+]([O-])c4)c3)nc2n(CC)c1=O stay below 40?
condition met

Does the reported Ratio Ki of CCCn1c(=O)c2[nH]c(-c3cnn(Cc4cccc(C(F)(F)F)c4)c3)nc2n(CCC)c1=O stay below 40?
condition met

Does the reported Ratio Ki of CCCn1c(=O)c2[nH]c(-c3cnn(Cc4cccc(C(F)(F)F)c4)c3)nc2n(CC)c1=O stay below 40?
condition not met

Does the reported Ratio Ki of CCn1c(=O)n(CC(C)C)c(=O)c2[nH]c(-c3cnn(Cc4cccc(C(F)(F)F)c4)c3)nc21 stay below 40?
condition not met

Does the reported Ratio Ki of CCn1c(=O)n(CC2CC2)c(=O)c2[nH]c(-c3cnn(Cc4cccc(C(F)(F)F)c4)c3)nc21 stay below 40?
condition met

Does the reported Ratio Ki of CCCn1c(=O)c2[nH]c(-c3cnn(Cc4ccccc4)c3)nc2n(CC)c1=O stay below 40?
condition met

Does the reported Ratio Ki of CCn1c(=O)n(CC(C)C)c(=O)c2[nH]c(-c3cnn(Cc4ccc(C(F)(F)F)nc4)c3)nc21 stay below 40?
condition not met

Does the reported Ratio Ki of CCCn1c(=O)c2[nH]c(-c3cn[nH]c3)nc2n(CC)c1=O stay below 40?
condition met

Does the reported Ratio Ki of CCn1c(=O)n(CC(C)C)c(=O)c2[nH]c(-c3cn[nH]c3)nc21 stay below 40?
condition met

Does the reported Ratio Ki of CCCn1c(=O)c2[nH]c(-c3cnn(Cc4cccc(F)c4)c3)nc2n(C)c1=O stay below 40?
condition met

Does the reported Ratio Ki of CCCn1c(=O)c2[nH]c(-c3cnn(Cc4noc(-c5ccc(C(F)(F)F)cc5)n4)c3)nc2n(CC)c1=O stay below 40?
condition not met

Does the reported Ratio Ki of CCn1c(=O)n(CC2CC2)c(=O)c2[nH]c(-c3cnn(Cc4ccc(C(F)(F)F)nc4)c3)nc21 stay below 40?
condition not met

Does the reported Ratio Ki of CCn1c(=O)n(CC(C)C)c(=O)c2[nH]c(-c3cnn(Cc4cccc(F)c4)c3)nc21 stay below 40?
condition not met

Does the reported Ratio Ki of CC(C)Cn1c(=O)c2[nH]c(-c3cnn(Cc4cccc(C(F)(F)F)c4)c3)nc2n(C)c1=O stay below 40?
condition met

Does the reported Ratio Ki of Cn1c(=O)n(CC2CC2)c(=O)c2[nH]c(-c3cnn(Cc4ccccc4)c3)nc21 stay below 40?
condition met

Does the reported Ratio Ki of CCCn1c(=O)c2[nH]c(-c3cnn(Cc4cccc(C(F)(F)F)c4)c3)nc2n(C)c1=O stay below 40?
condition met

Does the reported Ratio Ki of CCCn1c(=O)c2[nH]c(-c3cnn(Cc4cccc(F)c4)c3)nc2n(CC)c1=O stay below 40?
condition not met

Does the reported Ratio Ki of CC(C)Cn1c(=O)c2[nH]c(-c3cnn(Cc4ccccc4)c3)nc2n(C)c1=O stay below 40?
condition met

Does the reported Ratio Ki of CCCn1c(=O)c2[nH]c(-c3cnn(Cc4ccc(C)nc4)c3)nc2n(CC)c1=O stay below 40?
condition met

Does the reported Ratio Ki of CCCCn1c(=O)c2[nH]c(-c3cnn(Cc4cccc(F)c4)c3)nc2n(C)c1=O stay below 40?
condition met

Does the reported Ratio Ki of CC(C)Cn1c(=O)c2[nH]c(-c3cn[nH]c3)nc2n(C)c1=O stay below 40?
condition met

Does the reported Ratio Ki of CCCCn1c(=O)c2[nH]c(-c3cnn(Cc4cccc(C(F)(F)F)c4)c3)nc2n(C)c1=O stay below 40?
condition not met

Does the reported Ratio Ki of CCCn1c(=O)c2[nH]c(-c3cnn(Cc4cccnc4)c3)nc2n(CC)c1=O stay below 40?
condition met

Does the reported Ratio Ki of CCn1c(=O)n(CC2CC2)c(=O)c2[nH]c(-c3cn[nH]c3)nc21 stay below 40?
condition met

Does the reported Ratio Ki of CCCn1c(=O)c2[nH]c(-c3cnn(Cc4ccccn4)c3)nc2n(CC)c1=O stay below 40?
condition met

Does the reported Ratio Ki of CCn1c(=O)c2nc(-c3cnn(Cc4cccc(F)c4)c3)[nH]c2n(CC)c1=O stay below 40?
condition not met

Does the reported Ratio Ki of CCCn1c(=O)c2[nH]c(-c3cnn(Cc4ccccc4)c3)nc2n(C)c1=O stay below 40?
condition met

Does the reported Ratio Ki of CCCCn1c(=O)c2[nH]c(-c3cnn(Cc4ccccc4)c3)nc2n(C)c1=O stay below 40?
condition met

Does the reported Ratio Ki of CCCn1c(=O)c2[nH]c(-c3cnn(Cc4ccc(C(F)(F)F)nc4)c3)nc2n(CC)c1=O stay below 40?
condition not met

Does the reported Ratio Ki of CCn1c(=O)c2[nH]c(-c3cnn(Cc4ccccc4)c3)nc2n(C)c1=O stay below 40?
condition met

Does the reported Ratio Ki of CCn1c(=O)n(CC2CC2)c(=O)c2[nH]c(-c3cnn(Cc4ccccc4)c3)nc21 stay below 40?
condition met

Does the reported Ratio Ki of CCn1c(=O)c2nc(-c3cnn(Cc4cccc(C(F)(F)F)c4)c3)[nH]c2n(CC)c1=O stay below 40?
condition met

Does the reported Ratio Ki of CCCn1c(=O)c2[nH]c(-c3cnn(Cc4cc(-c5ccc(Cl)cc5)on4)c3)nc2n(CC)c1=O stay below 40?
condition met

* * *

species: Homo sapiens; assay: Selectivity for human recombinant adenosine A2B receptor over human recombinant adenosine A1 receptor
property: Ratio Ki
The reply should be a number, written without any unit.

Query Ratio Ki for CCCn1c(=O)c2[nH]c(-c3cnn(Cc4cccc(F)c4)c3)nc2n(CC)c1=O
34

Query Ratio Ki for CCn1c(=O)n(CC(C)C)c(=O)c2[nH]c(-c3cnn(Cc4cccc(C(F)(F)F)c4)c3)nc21
57

Query Ratio Ki for CCn1c(=O)c2[nH]c(-c3cnn(Cc4ccccc4)c3)nc2n(C)c1=O
130

Query Ratio Ki for CCn1c(=O)c2nc(-c3cnn(Cc4cccc(C(F)(F)F)c4)c3)[nH]c2n(CC)c1=O
44

* * *

molecular target: Adenosine receptor A2a (Homo sapiens); assay: Displacement of [3H]ZM-241385 from human recombinant adenosine A2A receptor expressed in HEK293 cells
Sequence (P29274 whole entry): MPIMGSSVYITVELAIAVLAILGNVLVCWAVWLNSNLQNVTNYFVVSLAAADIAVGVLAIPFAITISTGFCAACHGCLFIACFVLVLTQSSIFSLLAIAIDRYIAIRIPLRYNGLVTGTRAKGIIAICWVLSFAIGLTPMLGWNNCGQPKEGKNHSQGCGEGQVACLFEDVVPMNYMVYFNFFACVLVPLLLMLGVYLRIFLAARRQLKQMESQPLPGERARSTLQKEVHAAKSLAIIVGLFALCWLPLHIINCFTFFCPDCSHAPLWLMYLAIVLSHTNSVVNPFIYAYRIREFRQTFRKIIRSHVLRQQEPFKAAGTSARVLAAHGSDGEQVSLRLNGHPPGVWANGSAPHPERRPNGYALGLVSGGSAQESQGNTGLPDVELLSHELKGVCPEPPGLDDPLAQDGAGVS
property: Ki (nM)
Numbers only; they are read as nM.

Query Ki for CCn1c(=O)n(CC2CC2)c(=O)c2[nH]c(-c3cnn(Cc4cccc(C(F)(F)F)c4)c3)nc21
272

Query Ki for CCCn1c(=O)c2[nH]c(-c3cnn(Cc4nc(-c5ccc(Cl)cc5)no4)c3)nc2n(CC)c1=O
3780

Query Ki for Cn1c(=O)n(CC2CC2)c(=O)c2[nH]c(-c3cnn(Cc4ccccc4)c3)nc21
149

Query Ki for CCn1c(=O)n(CC(C)C)c(=O)c2[nH]c(-c3cnn(Cc4cccc(C(F)(F)F)c4)c3)nc21
1090

Query Ki for CCCCn1c(=O)c2[nH]c(-c3cnn(Cc4cccc(C(F)(F)F)c4)c3)nc2n(C)c1=O
481

Query Ki for CC(C)Cn1c(=O)c2[nH]c(-c3cnn(Cc4cccc(C(F)(F)F)c4)c3)nc2n(C)c1=O
633

Query Ki for CCCn1c(=O)c2[nH]c(-c3cnn(Cc4ccccn4)c3)nc2n(CC)c1=O
411

Query Ki for CCCn1c(=O)c2[nH]c(-c3cn[nH]c3)nc2n(CC)c1=O
496

Query Ki for CCCn1c(=O)c2[nH]c(-c3cnn(Cc4cccc(F)c4)c3)nc2n(CC)c1=O
2500

Query Ki for CCCn1c(=O)c2[nH]c(-c3cnn(Cc4ccc[n+]([O-])c4)c3)nc2n(CC)c1=O
1950

Query Ki for CCCn1c(=O)c2[nH]c(-c3cnn(Cc4cccc(F)c4)c3)nc2n(C)c1=O
139

Query Ki for Cn1c(=O)n(CC2CC2)c(=O)c2[nH]c(-c3cnn(Cc4cccc(F)c4)c3)nc21
73

Query Ki for Cn1c(=O)n(CC2CC2)c(=O)c2[nH]c(-c3cnn(Cc4cccc(C(F)(F)F)c4)c3)nc21
312

Query Ki for CCCn1c(=O)c2[nH]c(-c3cnn(Cc4cccc(C(F)(F)F)c4)c3)nc2n(CC)c1=O [GS 6201]
3280

Query Ki for CC(C)Cn1c(=O)c2[nH]c(-c3cnn(Cc4cccc(F)c4)c3)nc2n(C)c1=O
301

Query Ki for CC(C)Cn1c(=O)c2[nH]c(-c3cn[nH]c3)nc2n(C)c1=O
1390

Query Ki for CCn1c(=O)n(CC(C)C)c(=O)c2[nH]c(-c3cn[nH]c3)nc21
1220

Query Ki for CCn1c(=O)c2[nH]c(-c3cnn(Cc4ccccc4)c3)nc2n(C)c1=O
73

Query Ki for CCCn1c(=O)c2[nH]c(-c3cnn(Cc4cccnc4)c3)nc2n(CC)c1=O
312
